Target: guinea-pig tracheal strips (LTD4 concentration-response) (Cavia porcellus)
Construct: from tissue; host or cells: guinea-pig tracheal strips
Sequence (Q2NNR5 whole entry): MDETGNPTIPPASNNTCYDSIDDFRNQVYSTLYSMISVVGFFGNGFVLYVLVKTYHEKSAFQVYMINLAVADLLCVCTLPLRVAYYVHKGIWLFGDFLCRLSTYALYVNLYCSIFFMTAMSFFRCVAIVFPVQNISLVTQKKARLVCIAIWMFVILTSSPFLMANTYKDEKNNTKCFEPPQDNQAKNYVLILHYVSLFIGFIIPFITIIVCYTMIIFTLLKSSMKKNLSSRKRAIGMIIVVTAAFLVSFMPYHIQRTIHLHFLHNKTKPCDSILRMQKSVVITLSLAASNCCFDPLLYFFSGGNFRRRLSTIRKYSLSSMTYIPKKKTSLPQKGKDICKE
Experiment: LTD4 antagonism in guinea-pig tracheal strips (pKB)
Settings: Pharmacological Data table
readout-type: Kb (nM)
Give the quantity in nM, number only.

Solved entries:
> print(dat)
                                   compound  readout.type  reported.measurement
1  O=C(O)COc1ccccc1CNc1cccc(OCc2ccc3ccccc3n2)c1 [Example 9]            Kb                 0.316
2  O=C(O)COc1ccc(CNc2cccc(OCc3ccc4ccccc4n3)c2)cc1 [Example 10]            Kb                  3.98
3  O=C(O)COc1cccc(CNc2cccc(OCc3ccc4ccccc4n3)c2)c1 [Example 1]            Kb                  5.01

Okay, now this compound:
Record c1ccc(CNc2cccc(OCc3ccc4ccccc4n3)c2)cc1 [example 39, reference compound] has guinea-pig tracheal strips (LTD4 concentration-response) (Cavia porcellus) Kb equal to 126

Reference source: patent US5110819A
